Source of measurements: the supplement of paper PMC11246515

experiment: total protein half-life in vivo (active degradation + dilution); higher = more stable protein
condition_label: E. coli NCM3722 delta-clpP delta-lon delta-hslV; growth: N-lim chemostat; doubling time 6 h
measured_quantity: total protein half-life in vivo
Answer by giving the amount and then stating its unit.

Example entries begin here.
MSEALLNAGRQTLMLELQEASRLPERLGDDFVRAANIILHCEGKVVVSGIGKSGHIGKKIAATLASTGTPAFFVHPAEALHGDLGMIESRDVMLFISYSGGAKELDLIIPRLEDKSIALLAMTGKPTSPLGLAAKAVLDISVEREACPMHLAPTSSTVNTLMMGDALAMAVMQARGFNEEDFARSHPAGALGARLLNKVHHLMRRDDAIPQVALTASVMDAMLELSRTGLGLVAVCDAQQQVQGVFTDGDLRRWLVGGGALTTPVNEAMTVGGTTLQSQSRAIDAKEILMKRKITAAPVVDENGKLTGAINLQDFYQAGII	5.02 h
MTDNTYQPAKVWTWDKSAGGAFANINRPVSGPTHEKTLPVGKHPLQLYSLGTPNGQKVTIMLEELLALGVTGAEYDAWLIRIGDGDQFSSGFVEVNPNSKIPALRDHTHNPPIRVFESGSILLYLAEKFGYFLPQDLAKRTETMNWLFWLQGAAPFLGGGFGHFYHYAPVKIEYAINRFTMEAKRLLDVLDKQLAQHKFVAGDEYTIADMAIWPWFGNVVLGGVYDAAEFLDAGSYKHVQRWAKEVGERPAVKRGRIVNRTNGPLNEQLHERHDASDFETNTEDKRQG	5.11 h
MLKLTDITWLYHHLPMRFSLTVERGEQVAILGPSGAGKSTLLNLIAGFLTPASGSLTIDGVDHTTMPPSRRPVSMLFQENNLFSHLTVAQNIGLGLNPGLKLNAVQQGKMHAIARQMGIDNLMARLPGELSGGQRQRVALARCLVREQPILLLDEPFSALDPALRQEMLTLVSTSCQQQKMTLLMVSHSVEDAARIATRSVVVADGRIAWQGMTNELLSGKASASALLGITG	4.96 h
METVAYADFARLEMRVGKIVEVKRHENADKLYIVQVDVGQKTLQTVTSLVPYYSEEELMGKTVVVLCNLQKAKMRGETSECMLLCAETDDGSESVLLTPERMMPAGVRVV	5.14 h

Attention now turns to another entry.
The reported total protein half-life in vivo of the sequence MIQSQINRNIRLDLADAILLSKAKKDLSFAEIADGTGLAEAFVTAALLGQQALPADAARLVGAKLDLDEDSILLLQMIPLRGCIDDRIPTDPTMYRFYEMLQVYGTTLKALVHEKFGDGIISAINFKLDVKKVADPEGGERAVITLDGKYLPTKPF was 5.03 h

---

experiment: total protein half-life in vivo (active degradation + dilution); higher = more stable protein
condition_label: wild type E. coli NCM3722; growth: C-lim chemostat; doubling time 12 h
measured_quantity: total protein half-life in vivo (h)
Numbers only here, please. The scale is h.

MRYRIFLLFFFALLPTSLVWAAPAQRAFSDWQVTCNNQNFCVARNTGDHNGLVMTLSRSAGAHTDAVLRIERGGLKSPEASEGEIAPRLLLDGEPLALSGDKWRISPWLLVTDDTATITAFLQMIQEGKAITLRDGDQTISLSGLKAALLFIDAQQKRVGSETAWIKKGDEPPLSVPPAPALKEVAVVNPTPTPLSLEERNDLLDYGNWRMNGLRCSLDPLRREVNVTALTDDKALMMISCEAGAYNTIDLAWIVSRKKPLASRPVRLRLPFNNGQETNELELMNATFDEKSRELVTLAKGRGLSDCGIQARWRFDGQRFRLVRYAAEPTCDNWHGPDAWPTLWITR	10.4
MQSWYLLYCKRGQLQRAQEHLERQAVNCLAPMITLEKIVRGKRTAVSEPLFPNYLFVEFDPEVIHTTTINATRGVSHFVRFGASPAIVPSAVIHQLSVYKPKDIVDPATPYPGDKVIITEGAFEGFQAIFTEPDGEARSMLLLNLINKEIKHSVKNTEFRKL [P0AFW0]	6.64

The reported total protein half-life in vivo of the sequence MNKTQLIDVIAEKAELSKTQAKAALESTLAAITESLKEGDAVQLVGFGTFKVNHRAERTGRNPQTGKEIKIAAANVPAFVSGKALKDAVK [P0ACF0] was 10

---

The following sequences are shown together with reported total protein half-life in vivo values.
experiment: total protein half-life in vivo (active degradation + dilution); higher = more stable protein
condition_label: E. coli NCM3722 delta-clpP delta-lon delta-hslV; growth: N-lim chemostat; doubling time 6 h
Numbers only here, please. The scale is h.

Example entries begin here.
MGKSIVVVSAVNFTTGGPFTILKKFLAATNNKENVSFIALVHSAKELKESYPWVKFIEFPEVKGSWLKRLHFEYVVCKKLSKELNATHWICLHDITANVVTKKRYVYCHNPAPFYKGILFREILMEPSFFLFKMLYGLIYKINIKKNTAVFVQQFWMKEKFIKKYSINNIIVSRPEIKLSDKSQLTDDDSQFKNNPSELTIFYPAVPRVFKNYELIISAARKLKEQSNIKFLLTISGTENAYAKYIISLAEGLDNVHFLGYLDKEKIDHCYNISDIVCFPSRLETWGLPLSEAKERGKWVLASDFPFTRETLGSYEKKAFFDSNNDDMLVKLIIDFKKGNLKKDISDANFIYRNENVLVGFDELVNFITEEH	5.98
MKFELDTTDGRARRGRLVFDRGVVETPCFMPVGTYGTVKGMTPEEVEATGAQIILGNTFHLWLRPGQEIMKLHGDLHDFMQWKGPILTDSGGFQVFSLGDIRKITEQGVHFRNPINGDPIFLDPEKSMEIQYDLGSDIVMIFDECTPYPADWDYAKRSMEMSLRWAKRSRERFDSLGNKNALFGIIQGSVYEDLRDISVKGLVDIGFDGYAVGGLAVGEPKADMHRILEHVCPQIPADKPRYLMGVGKPEDLVEGVRRGIDMFDCVMPTRNARNGHLFVTDGVVKIRNAKYKSDTGPLDPECDCYTCRNYSRAYLHHLDRCNEILGARLNTIHNLRYYQRLMAGLRKAIEEGKLESFVTDFYQRQGREVPPLNVD [P0A847]	5.51
MDLQHWQAQFENWLKNHHQHQDAAHDVCHFRRVWATAQKLAADDDVDMLVILTACYFHDIVSLAKNHPQRQRSSILAAEETRRLLREEFEQFPAEKIEAVCHAIAAHSFSAQIAPLTTEAKIVQDADRLEALGAIGLARVFAVSGALGVALFDGEDPFAQHRPLDDKRYALDHFQTKLLKLPQTMQTARGKQLAQHNAHFLVEFMAKLSAELAGENEGVDHKVIDAFSSAG	4.36
MKIGIIGAMEEEVTLLRDKIENRQTISLGGCEIYTGQLNGTEVALLKSGIGKVAAALGATLLLEHCKPDVIINTGSAGGLAPTLKVGDIVVSDEARYHDADVTAFGYEYGQLPGCPAGFKADDKLIAAAEACIAELNLNAVRGLIVSGDAFINGSVGLAKIRHNFPQAIAVEMEATAIAHVCHNFNVPFVVVRAISDVADQQSHLSFDEFLAVAAKQSSLMVESLVQKLAHG [P0AF12]	4.9

Attention now turns to another entry.
The reported total protein half-life in vivo of the sequence MRRFFWLVAAALLLAGCAGEKGIVEKEGYQLDTRRQAQAAYPRIKVLVIHYTADDFDSSLATLTDKQVSSHYLVPAVPPRYNGKPRIWQLVPEQELAWHAGISAWRGATRLNDTSIGIELENRGWQKSAGVKYFAPFEPAQIQALIPLAKDIIARYHIKPENVVAHADIAPQRKDDPGPLFPWQQLAQQGIGAWPDAQRVNFYLAGRAPHTPVDTASLLELLARYGYDVKPDMTPREQRRVIMAFQMHFRPTLYNGEADAETQAIAEALLEKYGQD was 6.4

---

experiment: total protein half-life in vivo (active degradation + dilution); higher = more stable protein
condition_label: wild type E. coli NCM3722; growth: C-lim chemostat; doubling time 6 h
Everything with total protein half-life in vivo lower than 5 h is n; everything else, including exactly 5 h, is y.

MTIKNKMLLGALLLVTSAAWAAPATAGSTNTSGISKYELSSFIADFKHFKPGDTVPEMYRTDEYNIKQWQLRNLPAPDAGTHWTYMGGAYVLISDTDGKIIKAYDGEIFYHR	y
MPRANEIKKGMVLNYNGKLLLVKDIDIQSPTARGAATLYKMRFSDVRTGLKVEERFKGDDIVDTVTLTRRYVDFSYVDGNEYVFMDKEDYTPYTFTKDQIEEELLFMPEGGMPDMQVLTWDGQLLALELPQTVDLEIVETAPGIKGASASARNKPATLSTGLVIQVPEYLSPGEKIRIHIEERRYMGRAD [P0A6N8]	y
MIPEKRIIRRIQSGGCAIHCQDCSISQLCIPFTLNEHELDQLDNIIERKKPIQKGQTLFKAGDELKSLYAIRSGTIKSYTITEQGDEQITGFHLAGDLVGFDAIGSGHHPSFAQALETSMVCEIPFETLDDLSGKMPNLRQQMMRLMSGEIKGDQDMILLLSKKNAEERLAAFIYNLSRRFAQRGFSPREFRLTMTRGDIGNYLGLTVETISRLLGRFQKSGMLAVKGKYITIENNDALAQLAGHTRNVA [P0A9E5]	n
MKYRIALAVSLFALSAGSYATTLCQEKEQNILKEISYAEKHQNQNRIDGLNKALSEVRANCSDSQLRADHQKKIAKQKDEVAERQQDLAEAKQKGDADKIAKRERKLAEAQEELKKLEARDY	y
MKPVTLYDVAEYAGVSYQTVSRVVNQASHVSAKTREKVEAAMAELNYIPNRVAQQLAGKQSLLIGVATSSLALHAPSQIVAAIKSRADQLGASVVVSMVERSGVEACKAAVHNLLAQRVSGLIINYPLDDQDAIAVEAACTNVPALFLDVSDQTPINSIIFSHEDGTRLGVEHLVALGHQQIALLAGPLSSVSARLRLAGWHKYLTRNQIQPIAEREGDWSAMSGFQQTMQMLNEGIVPTAMLVANDQMALGAMRAITESGLRVGADISVVGYDDTEDSSCYIPPLTTIKQDFRLLGQTSVDRLLQLSQGQAVKGNQLLPVSLVKRKTTLAPNTQTASPRALADSLMQLARQVSRLESGQ	y

Then there is this sequence:
stdin: Would you say MTRPIQASLDLQALKQNLSIVRQAATHARVWSVVKANAYGHGIERIWSAIGATDGFALLNLEEAITLRERGWKGPILMLEGFFHAQDLEIYDQHRLTTCVHSNWQLKALQNARLKAPLDIYLKVNSGMNRLGFQPDRVLTVWQQLRAMANVGEMTLMSHFAEAEHPDGISGAMARIEQAAEGLECRRSLSNSAATLWHPEAHFDWVRPGIILYGASPSGQWRDIANTGLRPVMTLSSEIIGVQTLKAGERVGYGGRYTARDEQRIGIVAAGYADGYPRHAPTGTPVLVDGVRTMTVGTVSMDMLAVDLTPCPQAGIGTPVELWGKEIKIDDVAAAAGTVGYELMCALALRVPVVTV shows total protein half-life in vivo at minimum 5 h?
stdout: y
